# System: HIV IIIB
# assay: XTT cell culture assay, cells infected with HIV IIIB
# Format: cell-based
# condition details: Human immunodeficiency virus 1, IIIB, XTT assay, HIV IIIB infected cells, XTT 5-6 days post infection; read-out: Cell Culture IC50
pIC50: −log10 of the molar value.
pIC50 for assorted compounds
endpoint: pIC50

compound | result
O=S1(=O)C(Cc2ccccc2)C(OCc2cncs2)C(O)C(O)C(OCc2cncs2)C1Cc1ccccc1 (stereo not shown) | > 5.70
Cc1nc(COC2C(O)C(O)C(OCc3csc(C)n3)C(Cc3ccccc3)S(=O)(=O)C2Cc2ccccc2)cs1 (stereo not shown) | 4.30 to 5.00
COc1cccc(COC2C(O)C(O)C(OCc3cccc(OC)c3)C(Cc3ccccc3)S(=O)(=O)C2Cc2ccccc2)c1 (stereo not shown) | > 5.70
[O-][S+]1C(Cc2ccccc2)C(OCc2ccccc2)C(O)C(O)C(OCc2ccccc2)C1Cc1ccccc1 (stereo not shown) | 5.00 to 5.70
O=[N+]([O-])c1cccc(CO[C@@H]2[C@H](O)[C@@H](O)C(NCc3ccccc3)C(Cc3ccccc3)S(=O)(=O)[C@@H]2Cc2ccccc2)c1 (stereo partly shown) | 5.00 to 5.70
O=S1(=O)C(Cc2ccccc2)C(NCc2ccccc2)[C@H](O)[C@@H](O)[C@@H](OCc2ccccc2)[C@H]1Cc1ccccc1 (stereo partly shown) | 5.00 to 5.70
Nc1ccc(OC2C(O)C(O)C(Oc3ccc(N)c(C(F)(F)F)c3)C(Cc3ccccc3)S(=O)(=O)C2Cc2ccccc2)cc1C(F)(F)F (stereo not shown) | > 5.70
O=S1(=O)[C@H](Cc2ccccc2)[C@H](OCc2ccccn2)[C@H](O)[C@@H](O)[C@@H](OCc2ccccn2)[C@H]1Cc1ccccc1 | 5.00 to 5.70
O=S1(=O)[C@H](Cc2ccccc2)[C@H](OCc2ccccn2)[C@H](O)[C@@H](O)[C@@H](OCc2cccc[n+]2[O-])[C@H]1Cc1ccccc1 | 5.00 to 5.70
[O-][S+]1CC(OCc2ccccc2)C(O)C(O)C(OCc2ccccc2)C1Cc1ccccc1 (stereo not shown) | 4.30 to 5.00
Cc1cccc(COC2C(O)C(O)C(OCc3cccc(C)c3)C(Cc3ccccc3)S(=O)(=O)C2Cc2ccccc2)c1 (stereo not shown) | > 5.70
Nc1cccc(COC2C(O)C(O)C(OCc3cccc(N)c3)C(Cc3ccccc3)S(=O)(=O)C2Cc2ccccc2)c1 (stereo not shown) | > 5.70
O=S1(=O)C(Cc2ccccc2)C(NCCCc2ccccc2)[C@H](O)[C@@H](O)[C@@H](OCc2ccccc2)[C@H]1Cc1ccccc1 (stereo partly shown) | 5.00 to 5.70

* * *

# assayed target: HIV protease (Human immunodeficiency virus type 1 group M subtype B, UniProt P04585)
# Construct: fluorometric method for measurement of HIV-protease (HIV-PR) activity utilizing a synthetic peptide substrate
# assay: biochemical
# condition details: HIV protease, fluorogenic peptide substrate, pH 4.7, 37° C.; read-out: Apparent Enzyme IC50
pIC50: −log10 of the molar value.
pIC50 for assorted compounds
endpoint: pIC50

compound | result
Cc1ccnc(O[C@@H]2[C@H](O)[C@@H](O)[C@@H](Oc3cc(C)ccn3)[C@@H](Cc3ccccc3)S(=O)(=O)[C@@H]2Cc2ccccc2)c1 | 4.30 to 5.00
Cc1ccc(OC2C(O)C(O)C(Oc3ccc(C)cn3)C(Cc3ccccc3)S(=O)(=O)C2Cc2ccccc2)nc1 (stereo not shown) | 5.00 to 5.70
[O-][S+]1CC(OCc2ccccc2)C(O)C(O)C(OCc2ccccc2)C1Cc1ccccc1 (stereo not shown) [107/3] | 5.00 to 5.70
O=[N+]([O-])c1cccc(CO[C@@H]2[C@H](O)[C@@H](O)C(NCc3ccccc3)C(Cc3ccccc3)S(=O)(=O)[C@@H]2Cc2ccccc2)c1 (stereo partly shown) | > 5.70
